What viability, T/C was measured for each of the following?
System: 945468-187-T-J2-PDC spheroids viability;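 further: spheroids exposed to compounds for seven days before reading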
assay_remarks: Anticancer human tumor 945468-187-T-J2-PDC patient-derived rectal carcinoma cell line growth inhibition [PI3K]
applied_conditions: second compound 0.01 µM; first compound 0.1 µM; active compounds read low; spheroids with HUVEC and MSC
One number for each entry, in %.

The following compounds have reported results that may help.
>>> assay_result("CC(=O)c1c(C)c2cnc(Nc3ccc(N4CCNCC4)cn3)nc2n(C2CCCC2)c1=O + CC(Nc1ccc2c(c1)OCCn1cc(N3C(=O)OCC3C(F)F)nc1-2)C(N)=O")
114
>>> assay_result("Cn1ncc(Cl)c1-c1cc(C(=O)NC(CN)Cc2cccc(F)c2)sc1Cl (centres undefined) + CC(Nc1ccc2c(c1)OCCn1cc(N3C(=O)OCC3C(F)F)nc1-2)C(N)=O")
75.4
>>> assay_result("CC(C)NCC(C(=O)N1CCN(c2ncnc3c2C(C)CC3O)CC1)c1ccc(Cl)cc1 (centres undefined) + COc1c(OCCCN2CCOCC2)ccc2c3n(c(=NC(=O)c4cnc(N)nc4)nc12)CCN3")
109

Now for the compound whose viability, T/C we want.
# viability, T/C (compound: Cn1ncc(Cl)c1-c1cc(C(=O)NC(CN)Cc2cccc(F)c2)sc1Cl (centres undefined) + COc1c(OCCCN2CCOCC2)ccc2c3n(c(=NC(=O)c4cnc(N)nc4)nc12)CCN3 ) is 102

// data source = PubChem BioAssay AID1963972
